B1: PRPH (parent)
chain: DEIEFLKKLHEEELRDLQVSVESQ

Variants of: B1
Experiment: protein stability index of a GFP-peptide fusion (GPS, HEK-293T) (PSI 1-6); higher = more stable;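 note: lentivirally expressed fusions sorted by FACS into six bins by GFP to DsRed ratio, PSI derived from sequencing read proportions per bin multiplied by bin number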
Settings: c terminus: a fixed tail appended
# protein stability index >= 4 gives satisfied, anything below gives not satisfied

# VARIANT IDENTIFIER, CLASSIFICATION
data = [
    ("K7C", "not satisfied"),
    ("E12P", "satisfied"),
    ("E2F", "not satisfied"),
    ("K7I", "not satisfied"),
    ("F5G", "satisfied"),
]

Does the variant "E13Q" have recorded protein stability index that is 4 or more?
satisfied

Check if protein stability index >= 4 (inclusive). Item: "L14P"
satisfied

Hi team, for "H10K" , is the recorded protein stability index at or above 4?
satisfied

# bool: protein stability index of "E13M" >= 4
not satisfied

Hi, just wondering whether "K8C" shows protein stability index of 4 or higher.
not satisfied
